- experiment: growth of efflux-deficient E. coli DRC39 – strain DRC39, OD650, 24 h, E. coli filamentation inducers, primary screen (AID 1178);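 note: growth measured as culture turbidity by optical density at 650 nm; test concentration not given here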
- experimental.conditions: E. coli DRC39 acrAB, higher = more signal, called active from +8 up or from −8 down
The source made the active and inactive calls.
measurement.label: z-score

>>> value_measured("O=C1C2C=CC(C(O)c3ccco3)N(Nc3ccccc3F)C2C(=O)N1c1ccccc1 (stereo unspecified)")
"-0.887 (inactive)"
>>> value_measured("CS(=O)(=O)CCOC(=O)C1=CC(CCCO)=CC(c2ccc(CN3CCCC3)cc2)N(Cc2sc3ccccc3c2Cl)C=C1C(=O)OCCS(C)(=O)=O (stereo unspecified)")
"0.285 (inactive)"
>>> value_measured("COCCCNC(=O)[C@@]1(CCC(=O)OC(C)(C)C)N=C(c2ccc(OCCCO)cc2)O[C@H]1c1ccccc1N=[N+]=[N-]")
"1.42 (inactive)"

Give one value of z-score per listed compound.
1. CN(C)c1ccc(C(O)C2C=CC3C(=O)NC(=O)C3N2Nc2ccccn2)cc1 (stereo unspecified)
2. COC(=O)C1=CC(CCCO)=CC(c2ccc(CN3CCCC3)cc2)N(Cc2cccc(OC(F)(F)F)c2)C=C1C(=O)OC (stereo unspecified)
3. NCCCCCCNC(=O)[C@@H]1C[C@@H]2C(=O)N[C@@H](CCCCN)C(=O)N2[C@@H]1c1ccc(O)cc1
4. C#CCN(Cc1ccccc1Br)[C@H](/C=C/c1ccccc1)[C@@H](O)Cc1ccccc1

1. -0.738 (inactive)
2. 0.509 (inactive)
3. -0.273 (inactive)
4. 1.84 (inactive)

Dear colleague, could you please provide z-score for the compounds listed below?
1. [N-]=[N+]=Nc1ccccc1[C@@H]1OC(c2ccc(OCCCO)cc2)=N[C@]1(Cc1ccccc1)C(=O)N1CCCCC1
2. C=C(/C(=C/C[C@H](OC(C)=O)c1ccc(CO)o1)c1cnc2ccccc2c1)C(C)C
3. CC(=O)N1CC2(CC2)CC1c1ccccc1 (stereo unspecified)
4. C=CCN1C(=O)[C@]2(CCS(=O)(=O)c3ccccc3)N=C(c3ccc(OCCCO)cc3)O[C@@H]2c2ccccc21
5. CC1CC/C=C\[C@H]2OC34C=CCN(C(C)(C)C)C(=O)[C@H]3N(CCCCCO)C(=O)[C@@H]4C2C(=O)O1 (stereo partly specified)
6. CCCCC(CC)C(O)C1C=CC2C(=O)N(c3ccccc3)C(=O)C2N1Nc1ccccc1F (stereo unspecified)
7. COc1ccc(CCNC(=O)[C@@]2(Cc3ccccc3I)c3ccccc3C(=O)N(C3CCCCC3)[C@H]2c2ccc(CO)cc2)cc1

0.241 (inactive)
0.307 (inactive)
-0.88 (inactive)
0.7 (inactive)
0.338 (inactive)
0.207 (inactive)
0.314 (inactive)

Report z-score for each item below.
1. C=CCNC(=O)[C@@H]1[C@H]2C(=O)O[C@H](c3ccccc3)[C@H](c3ccccc3)N2[C@H](c2ccccc2OCCO)[C@@]12C(=O)Nc1ccc(C#CCCO)cc12
2. O=C1OCCC=C[C@H]2OC34C=CCN(Cn5nnc6ccccc65)C(=O)[C@H]3N(CCCO)C(=O)[C@@H]4C12 (stereo partly specified)

-1.09 (inactive)
-1.13 (inactive)

----------
- target.system: Homeobox protein Hox-A13 (Mus musculus) (UniProt Q62424)
- Sequence (Q62424 whole entry, looked up): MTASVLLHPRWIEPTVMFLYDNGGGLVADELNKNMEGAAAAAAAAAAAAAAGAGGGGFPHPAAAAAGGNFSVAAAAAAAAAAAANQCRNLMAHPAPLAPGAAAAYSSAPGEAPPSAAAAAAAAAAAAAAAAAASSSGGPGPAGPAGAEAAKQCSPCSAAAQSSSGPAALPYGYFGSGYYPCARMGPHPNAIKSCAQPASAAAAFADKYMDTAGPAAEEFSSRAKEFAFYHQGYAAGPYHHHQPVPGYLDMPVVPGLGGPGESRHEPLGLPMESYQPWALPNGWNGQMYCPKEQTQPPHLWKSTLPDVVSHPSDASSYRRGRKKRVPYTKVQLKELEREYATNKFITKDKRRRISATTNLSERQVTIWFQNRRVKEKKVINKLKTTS
- experiment: disruptors of Hoxa13 oligonucleotide interaction – biochemical, fluorescence polarization, labeled oligonucleotide, primary screen (AID 1185)
- experimental.conditions: Hoxa13:DNA binding, 15 min, higher = more signal, called active from +8 up or from −8 down
We use -1 as the dividing line for z-score: on or above the line is Met, below is Not met.

>>> class_assignment("O=C1OCCC=C[C@H]2OC34C=CCN(c5ccc6ccccc6c5)C(=O)[C@H]3N(CCCO)C(=O)[C@@H]4C12 (stereo partly drawn)")
"Not met"

Hi, just wondering whether CCCC=C(CCC)[C@@H](NP(=O)(c1ccccc1)c1ccccc1)c1ccc(-c2ccccc2)cc1 shows z-score of -1 or higher.
Not met
